# assay_remarks: Determination of log P values by HPLC on reversed-phase column (formic acid method)
# Assay type: physicochemical
# experimental_conditions: reversed-phase HPLC column (C 18), pH 3.4, HPLC, reversed-phase C 18, acidic range (pH 3.4), formic acid eluents, 55° C.; read-out: logP (HCOOH)
# Method: 1) Description of Method for Determining the Log P Values (Formic Acid Method) The log P values reported in the table were determined according to EEC-Directive 79/831 Annex V.A8 by HPLC (High Performance Liquid Chromatography) on a reversed-phase column (C 18). […] Eluent A: acetonitrile+1 ml of formic acid/liter. Eluent B: water+0.9 ml of formic acid/liter. Gradient: from 10% eluent A/90% eluent B to 95% eluent A/5% eluent B in 4.25 min […]
Each entry below carries its recorded chromatographic logP.
Write the value as a bare number.

{"molecule": "CSC[C@H](C)N(C)C(=O)c1sc(-c2cccnc2)nc1C", "chromatographic logP": 1.71}

Prompt: Return reported chromatographic logP; argument: `Cc1nc(-c2cccnc2)sc1C(=O)NN(C)Cc1ccccn1`
Completion: 1.01
